# credit: patent US20080311130A1

STUDY_TARGET: T1, ICAM-1-Fcγ (ICAM-1 residues of 1-480 fused to the Fc of human IgG, R&D Systems) (human, UniProt P05362 28-480)
T1 construct: range 1-480; Bought (R&D Systems); also called ICAM-1-Fcγ chimera; not shown: Fc of human IgG
T1 sequence (P05362 28-480 limits assumed, form in doubt): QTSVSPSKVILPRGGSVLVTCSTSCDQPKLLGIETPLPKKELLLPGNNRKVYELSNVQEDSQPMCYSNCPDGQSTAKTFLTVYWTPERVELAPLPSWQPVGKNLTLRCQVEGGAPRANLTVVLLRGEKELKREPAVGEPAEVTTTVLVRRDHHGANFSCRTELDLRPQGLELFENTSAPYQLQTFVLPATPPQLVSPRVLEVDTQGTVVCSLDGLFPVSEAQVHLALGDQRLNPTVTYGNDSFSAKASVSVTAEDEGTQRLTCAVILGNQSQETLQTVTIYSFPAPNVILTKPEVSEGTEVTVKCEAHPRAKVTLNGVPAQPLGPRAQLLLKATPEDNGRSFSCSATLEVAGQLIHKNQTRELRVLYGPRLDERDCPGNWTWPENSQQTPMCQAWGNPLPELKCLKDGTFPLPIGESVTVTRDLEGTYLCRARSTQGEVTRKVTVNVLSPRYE
PROCEDURE_TEXT: flow cytometry on yeast-displayed I domain, ICAM-1-Fcγ 10 µg/ml
QUANTITY_NAME: ICAM-1 (% ASFI of HA)

BINDER	ICAM-1 (% ASFI of HA)
αL I domain clone f4 (L289W), yeast-displayed (receptor, yeast surface display; not shown: Aga2, linker and hemagglutinin tag of pCTCON; c-myc tag) NVDLVFLFDGSMSLQPDEFQKILDFMKDVMKKLSNTSYQFAAVQFSTSYKTEFDFSDYVKWKDPDALLKHVKHMLLLTNTFGAINYVATEVFREELGARPDATKVLIIITDGEATDSGNIDAAKDIIRYIIGIGKHFQTKESQETLHKFASKPASEFVKIWDTFEKLKDLFTELQKKIYVIEGTSKQDLT	51 % ASFI of HA
αL I domain clone m15a (F277L), yeast-displayed (receptor, yeast surface display; not shown: Aga2, linker and hemagglutinin tag of pCTCON; c-myc tag) NVDLVFLFDGSMSLQPDEFQKILDFMKDVMKKLSNTSYQFAAVQFSTSYKTEFDFSDYVKWKDPDALLKHVKHMLLLTNTFGAINYVATEVFREELGARPDATKVLIIITDGEATDSGNIDAAKDIIRYIIGIGKHFQTKESQETLHKLASKPASEFVKILDTFEKLKDLFTELQKKIYVIEGTSKQDLT	110 % ASFI of HA

Returns the measured ICAM-1 (% ASFI of HA) for the input binder. Input: αL I domain clone m5a (L274I), yeast-displayed (receptor, yeast surface display; not shown: Aga2, linker and hemagglutinin tag of pCTCON; c-myc tag) NVDLVFLFDGSMSLQPDEFQKILDFMKDVMKKLSNTSYQFAAVQFSTSYKTEFDFSDYVKWKDPDALLKHVKHMLLLTNTFGAINYVATEVFREELGARPDATKVLIIITDGEATDSGNIDAAKDIIRYIIGIGKHFQTKESQETIHKFASKPASEFVKILDTFEKLKDLFTELQKKIYVIEGTSKQDLT
91 % ASFI of HA

Request: αL I domain clone m11 (L295P, Q303R), yeast-displayed (receptor, yeast surface display; not shown: Aga2, linker and hemagglutinin tag of pCTCON; c-myc tag) NVDLVFLFDGSMSLQPDEFQKILDFMKDVMKKLSNTSYQFAAVQFSTSYKTEFDFSDYVKWKDPDALLKHVKHMLLLTNTFGAINYVATEVFREELGARPDATKVLIIITDGEATDSGNIDAAKDIIRYIIGIGKHFQTKESQETLHKFASKPASEFVKILDTFEKPKDLFTELRKKIYVIEGTSKQDLT
107 % ASFI of HA

// next record αL I domain clone m9 (F292S, Y177R, L204Q), yeast-displayed (receptor, yeast surface display; not shown: Aga2, linker and hemagglutinin tag of pCTCON; c-myc tag) NVDLVFLFDGSMSLQPDEFQKILDFMKDVMKKLSNTSYQFAAVQFSTSRKTEFDFSDYVKWKDPDALLKHVKHMLQLTNTFGAINYVATEVFREELGARPDATKVLIIITDGEATDSGNIDAAKDIIRYIIGIGKHFQTKESQETLHKFASKPASEFVKILDTSEKLKDLFTELQKKIYVIEGTSKQDLT
28 % ASFI of HA

Request: αL I domain clone m7 (F292S), yeast-displayed (receptor, yeast surface display; not shown: Aga2, linker and hemagglutinin tag of pCTCON; c-myc tag) NVDLVFLFDGSMSLQPDEFQKILDFMKDVMKKLSNTSYQFAAVQFSTSYKTEFDFSDYVKWKDPDALLKHVKHMLLLTNTFGAINYVATEVFREELGARPDATKVLIIITDGEATDSGNIDAAKDIIRYIIGIGKHFQTKESQETLHKFASKPASEFVKILDTSEKLKDLFTELQKKIYVIEGTSKQDLT
47 % ASFI of HA
